# protein stability index values compiled below
B1: KLHL14 (parent)
chain: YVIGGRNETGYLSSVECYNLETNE

Variants of: B1
Assay: protein stability index of a GFP-peptide fusion (GPS, HEK-293T) (PSI 1-6); higher = more stable;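 note: lentivirally expressed fusions sorted by FACS into six bins by GFP to DsRed ratio, PSI derived from sequencing read proportions per bin multiplied by bin number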
Conditions: c terminus: a fixed tail appended
ATTRIBUTE MEASURED: protein stability index

mutation_label=Y1L recorded_result=2.96
mutation_label=V2S recorded_result=3.89
mutation_label=Y1C recorded_result=3.48
mutation_label=N23K recorded_result=1.96
mutation_label=T22C recorded_result=1.79
mutation_label=E24K recorded_result=1.75
mutation_label=E21W recorded_result=3.54
mutation_label=C17L recorded_result=2.56
mutation_label=N19D recorded_result=2.41
mutation_label=N7G recorded_result=1.99
mutation_label=E21V recorded_result=1.54
mutation_label=V2C recorded_result=2.87
mutation_label=Y11N recorded_result=2.83
mutation_label=T9Y recorded_result=1.58
mutation_label=E8T recorded_result=1.78
mutation_label=N19H recorded_result=2.04
mutation_label=G10A recorded_result=1.88
